Measured IC50 accompanies every entry in the list below.
target: recombinant human cIAP2-BIR3 protein (Homo sapiens, UniProt Q13489); construct: recombinant human cIAP2-BIR3 protein; purchased Reaction biology APT-11-372; test: Recombinant human c-IAP2-BIR3 biochemical assay (HTRF, peptide displacement); conditions: 3.7 nM cIAP2-BIR3, 3.7 nM AbuRPF-K(5-Fam)-NH2 peptide, read-out: Protein binding IC50 (nM) c-IAP2
Sequence (Q13489 238-349 limits assumed): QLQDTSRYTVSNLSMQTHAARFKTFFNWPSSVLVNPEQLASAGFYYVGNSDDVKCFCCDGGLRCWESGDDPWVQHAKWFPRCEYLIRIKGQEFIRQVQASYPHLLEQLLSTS

{"COMPOUND": "CNC(=O)c1nc2c(cc1Cc1ccc(F)cc1)N(C(=O)CN1C[C@@H](C)NC[C@@H]1CN1[C@H](C)COC[C@H]1C)[C@@H](C)CO2", "IC50 / nM": 0.41}
{"COMPOUND": "C[C@@H]1CN(CC(=O)N2c3cc(Cc4ccc(F)cc4)c(C(N)=O)nc3OC[C@@H]2C)[C@@H](CN2[C@H](C)COC[C@H]2C)CN1", "IC50 / nM": 0.36}
{"COMPOUND": "CC(C)[C@H]1COc2ncc(Cc3ccc(F)cc3)cc2N1C(=O)CN1C[C@@H](C)NC[C@@H]1CN1[C@H](C)COC[C@H]1C", "IC50 / nM": 0.47}
{"COMPOUND": "C[C@@H]1CN(CC(=O)N2c3cc(Cc4ccc(F)cc4F)c(CO)nc3OC[C@@H]2C)[C@@H](CN2[C@H](C)COC[C@H]2C)CN1", "IC50 / nM": 0.34}
{"COMPOUND": "C[C@@H]1CN(CC(=O)N2c3cc(Cc4ccc(F)cc4)c(C(=O)NCCN4CCOCC4)nc3OC[C@@H]2C)C(CN2[C@H](C)COC[C@H]2C)CN1 (stereo partly drawn)", "IC50 / nM": 0.54}
{"COMPOUND": "C[C@@H]1CN(CC(=O)N2c3cc(Cc4ccc(F)cc4)c(NS(=O)(=O)C4CC4)nc3OC[C@@H]2C)[C@@H](CN2[C@H](C)COC[C@H]2C)CN1", "IC50 / nM": 0.35}

----------
biological target: recombinant human cIAP1-BIR3 protein (Homo sapiens, UniProt Q13490); construct: recombinant human cIAP1-BIR3 protein; purchased Reaction biology APT-11-370; test: Recombinant human c-IAP1-BIR3 biochemical assay (HTRF, peptide displacement); settings: 1.2 nM cIAP1-BIR3, 3 nM AbuRPF-K(5-Fam)-NH2 peptide, read-out: Protein binding IC50 (nM) c-IAP1
Sequence (Q13490 253-363 limits assumed): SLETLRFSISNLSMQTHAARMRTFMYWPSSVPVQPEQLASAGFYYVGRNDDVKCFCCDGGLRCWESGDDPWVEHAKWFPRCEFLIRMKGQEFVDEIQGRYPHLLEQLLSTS
PARAMETER MEASURED: IC50 (nM)

{"MOLECULAR STRING": "C[C@@H]1CN(CC(=O)N2c3cc(Cc4ccc(F)cc4)c(C(=O)N4CC[C@@H](F)C4)nc3OC[C@@H]2C)[C@@H](CN2[C@H](C)COC[C@H]2C)CN1", "UNIT TEXT": "nM", "READING": 0.19}
{"MOLECULAR STRING": "C[C@@H]1CN(CC(=O)N2CCOc3ncc(Cc4ccc(F)cc4)cc32)[C@@H](CN2[C@H](C)COC[C@H]2C)CN1", "UNIT TEXT": "nM", "READING": 0.34}
{"MOLECULAR STRING": "CCS(=O)(=O)Nc1nc2c(cc1Cc1ccc(F)cc1)N(C(=O)CN1C[C@@H](C)NC[C@@H]1CN1[C@H](C)COC[C@H]1C)[C@@H](C)CO2", "UNIT TEXT": "nM", "READING": 0.19}
{"MOLECULAR STRING": "C[C@@H]1CN(CC(=O)N2CCOc3nc(CO)c(Cc4ccc(F)cc4)cc32)[C@@H](CN2CCOC[C@H]2C)CN1", "UNIT TEXT": "nM", "READING": 1}
{"MOLECULAR STRING": "C[C@@H]1CN(CC(=O)N2c3cc(Cc4ccc(F)cc4)c(C(=O)NC[C@H]4CCCO4)nc3OC[C@@H]2C)[C@@H](CN2[C@H](C)COC[C@H]2C)CN1", "UNIT TEXT": "nM", "READING": 0.16}
{"MOLECULAR STRING": "COCCNc1nc2c(cc1Cc1ccc(F)cc1)N(C(=O)CN1C[C@@H](C)NC[C@@H]1CN1[C@H](C)COC[C@H]1C)[C@@H](C)CO2", "UNIT TEXT": "nM", "READING": 0.16}
